Data origin: ChEMBL document CHEMBL1201862

For each of the compounds below, state its GI50.
test system: SK-MEL-5; assay: NCI tumour cell line growth inhibition, 48 h
Active and inactive are the calls of the source. Cut-off read from the data, not from the text of the source: active = GI50 up to about 1.1 µM and inactive = higher.

• Cn1c(=O)c2[nH]c(CCC(=O)O)nc2n(C)c1=O = > 100 µM (inactive)
• O=C1OC(c2cccc(C(F)(F)F)c2)c2ccc3ccccc3c21 (stereo not drawn) = 4.74 µM (inactive)

In the following, a different compound is considered.
Exercise: Lab note: record GI50 of CN(C)[C@@H]1C(O)=C(C(=O)NCNCCCC(=O)O)C(=O)[C@@]2(O)C(O)=C3C(=O)c4c(O)cccc4[C@@](C)(O)[C@H]3C[C@@H]12 tested on SK-MEL-5.
Solution: > 100 µM (inactive)

* * *

test system: NCI-H226; assay: NCI tumour cell line growth inhibition, 48 h
Active and inactive are the calls of the source. Cut-off read from the data, not from the text of the source: active = GI50 up to about 1.1 µM and inactive = higher.
Just give me one of these, please: 1 (active), -1 (inactive)

See these solved cases before continuing.
* CC1(C)N=c2c(ncn2-c2ccccc2)=C(C(N)=O)N1 | -1
* O=c1[nH]c(=O)n([C@@H]2O[C@H](CO)[C@@H](O)[C@H]2O)cc1F | 1
* O=[N+]([O-])c1cc(C2(N3CCCCC3)CCCCC2)sc1Br | -1

Here is another compound to look at.
Exercise: Fill in: this test's call for CC(=O)OCC(OC(C)=O)C(OC(C)=O)C(/C=N\Nc1nc2ccccc2c(=O)[nH]1)=N\Nc1nc2ccccc2c(=O)[nH]1 (stereo unspecified) is ___
Solution: -1

* * *

tested on: SK-MEL-2; assay: NCI tumour cell line growth inhibition, 48 h
Calls of active or inactive are those of the source. No stated cut-off is given here; in the data, active = GI50 up to about 1.1 µM and inactive = higher.
Measured attribute: GI50

- CCC(=O)Nc1ccc(N2C(=O)/C(=C/c3ccc(O)c(OC)c3)N=C2c2ccccc2)cc1: 23.6 µM (inactive)
- CC1(C)N=c2c(ncn2-c2ccccc2)=C(C(N)=O)N1: > 100 µM (inactive)
- CCC(=O)C(c1ccccc1)c1ccccn1 (centres undefined): > 100 µM (inactive)
- CCOC(=O)c1c2ccccc2n2c(=O)n(-c3ccccc3)nnc12: > 25.8 µM (inactive)
- O=C(O)C1(CC(CCCN2CCCCC2)c2ccccc2)CCCC1 (centres undefined): > 100 µM (inactive)
- CCOC(=O)C1C(=O)CC(C)(O)C(C(=O)OCC)C1c1ccc(OC)cc1 (centres undefined): > 100 µM (inactive)

Please state, for each entry, its recorded GI50.
1. Cc1ccc(C)c2sc3cc(=O)ccc-3nc12
2. [O-][S+](Nc1ccccc1)c1ccc(N2CCOCC2)cc1 (centres undefined)
3. CSc1ccc(NC(=O)CCl)cc1
4. CCNC1C2(CCCCC2)NC(=O)C12CCCCC2 (centres undefined)
5. O=C(O)C(O)C(O)C(O)C(O)c1nc2ccccc2s1 (centres undefined)

Solution:
53.3 µM (inactive)
> 100 µM (inactive)
1.81 µM (inactive)
> 100 µM (inactive)
19.2 µM (inactive)

Please state, for each entry, its recorded GI50.
1. CCCCCCC(/C=N/O)C(C)(O)CCC (centres undefined)
2. Nc1ccc(C2(c3ccc(N)cc3)C3CC4CC(C3)CC2C4)cc1
3. Cn1ccc(C(=O)NCCN(CCNC(=O)c2ccn(C)c(=O)c2O)CCNC(=O)c2ccn(C)c(=O)c2O)c(O)c1=O
4. CC(OC(=O)C(CC(=O)OC(C)(C)C)NC(=O)OC(C)(C)C)C(=O)OCc1ccccc1 (centres undefined)

Solution:
1: > 100 µM (inactive); 2: 18.5 µM (inactive); 3: > 100 µM (inactive); 4: > 100 µM (inactive)

Please state, for each entry, its recorded GI50.
1. COc1c2c(c(O)c3c4c(c(C)cc13)C1OC3(C(OC)OC5CC(C)(O)C(OC6CC(C)(O)C(O)C(C)O6)C(C)O5)OC1C(OC)(O4)C31CO1)C(=O)C(O)CC2OC1CC(C)(O)C(OC(C)=O)C(C)O1 (centres undefined)
2. C(=N/c1ccccc1C1SCCCS1)/c1ccccc1
3. CO/C(=N\N=C\c1ccc(OC)cc1OC)c1ccncc1
4. O=C(NC/C(Cl)=C/Cl)Nc1cccc2c1CCCC2

Solution:
["< 0.01 µM (active)", "> 100 µM (inactive)", "> 10 µM (inactive)", "> 100 µM (inactive)"]

Please state, for each entry, its recorded GI50.
1. CC(C)NC(C)Cc1ccccc1 (centres undefined)
2. CO[C@H]1C[C@H](O[C@H]2CC[C@]3(C=O)[C@H]4CC[C@]5(C)[C@@H](C6=CC(=O)OC6)CC[C@]5(O)[C@@H]4CC[C@]3(O)C2)O[C@H](C)[C@H]1O[C@@H]1O[C@H](CO[C@@H]2O[C@H](CO)[C@@H](O)[C@H](O)[C@H]2O)[C@@H](O)[C@H](O)[C@H]1O
3. N#CC(NNC(=O)Cc1ccccc1)c1ccc(O)cc1 (centres undefined)
4. CC1S/C(=N\N=C2/C(=O)Nc3ccc(Br)cc32)N(C2CCCCC2)C1=O (centres undefined)
5. CC1(C)SC2C(C(=O)O)N=C(Cc3ccccc3)N2C1C(=O)O (centres undefined)

Solution:
["> 100 µM (inactive)", "0.235 µM (active)", "> 100 µM (inactive)", "1.45 µM (inactive)", "> 100 µM (inactive)"]

* * *

For each of the molecules below, state its GI50.
system: UO-31; experiment: NCI tumour cell line growth inhibition, 48 h
Activity calls are given as the source filed them. No stated cut-off is given here; in the data, active = GI50 up to about 1.1 µM and inactive = higher.

Some entries whose results are on file:
- N#Cc1c2ccc([N+](=O)[O-])cc2c(=O)n2c1[nH]c1ccc(C(F)(F)F)cc12: 17.5 µM (inactive)
- Nc1nc(-c2ccccc2)nc2c1[n+]([O-])c1ccccc1[n+]2[O-]: > 100 µM (inactive)
- CSc1ncnc2c1cnn2Cc1cn(COCC(O)CO)nn1 (stereo not given): > 100 µM (inactive)
- Cc1ccc(-c2n[nH]c(=O)[nH]2)cc1: > 100 µM (inactive)
- C=Cc1c(C)c(OC)cc2c1Oc1ccc(OC)c(C)c1CC2: > 100 µM (inactive)
- Cc1ccc(/N=N/c2c(O)c3ccccc3[nH]c2=O)c(S(=O)(=O)N(C)C)c1: > 100 µM (inactive)
- CC(OC(=O)C(CC(=O)OC(C)(C)C)NC(=O)OC(C)(C)C)C(=O)OCc1ccccc1 (stereo not given): > 100 µM (inactive)
- O/N=C(\C=N\O)c1ccc2c(c1)Sc1ccccc1O2: 21.4 µM (inactive)

Please state, for each entry, its recorded GI50.
1. CSc1ccc(NC(=O)CCl)cc1
2. C[C@H](CC[C@@H](O)C(C)(C)O)[C@H]1CC[C@@]2(C)[C@@H]3CC=C4[C@@H](CC[C@H](O)C4(C)C)[C@]3(C)C(=O)C[C@]12C
3. CCCCC1=C(Br)C(=C(Br)Br)OC1=O
4. CN(C(=O)c1ccc2c(c1)sc1c(=O)n(C)c3ccccc3c12)c1ccccc1
5. O=C(O)c1cc(C(=O)C(=O)c2cc(C(=O)O)c(O)c3ccccc23)c2ccccc2c1O
6. COc1ccc2nc(N/N=C/c3sccc3C)cc(C)c2c1
7. [O-][S+](Nc1ccccc1)c1ccc(N2CCOCC2)cc1 (stereo not given)
8. Cn1ccc(C(=O)NCCN(CCNC(=O)c2ccn(C)c(=O)c2O)CCNC(=O)c2ccn(C)c(=O)c2O)c(O)c1=O

Solution:
1: 2.23 µM (inactive); 2: 34 µM (inactive); 3: 11.9 µM (inactive); 4: 37.7 µM (inactive); 5: > 100 µM (inactive); 6: 15.1 µM (inactive); 7: 10.8 µM (inactive); 8: > 100 µM (inactive)

Please state, for each entry, its recorded GI50.
1. CCOC(=O)C1=C(Nc2ccc(Br)cc2)OC/C1=N\NC(=O)c1ccccc1O
2. CC(=O)NC(CC(C)C)C(=O)NC(Cc1ccccc1)C(=S)N1CCCC1 (stereo not given)
3. Cn1c2c([N+](=O)[O-])cccc2c(=O)c2c(O)cc3c(c21)C=CC(C)(C)O3
4. C=C=C(C)C(=O)N(C(C)C)C(C)C

Solution:
["9.71 µM (inactive)", "> 100 µM (inactive)", "40.6 µM (inactive)", "> 100 µM (inactive)"]

* * *

For each of the compounds below, state its GI50.
test system: SK-OV-3; experiment: NCI tumour cell line growth inhibition, 48 h
Calls of active or inactive are those of the source. Cut-off read from the data, not from the text of the source: active = GI50 up to about 1.1 µM and inactive = higher.

Some entries whose results are on file:
• Nc1c2ccccc2nc2c1ccc1ncccc12 = 30.5 µM (inactive)
• CCCCc1c2c(nc3c1CCC/C3=C\c1ccccc1)/C(=C/c1ccccc1)CCC2 = > 100 µM (inactive)
• CO[C@@]12C[C@H](CNC(=O)c3ccc[nH]3)O[C@@H]1NC(=O)N2 = > 100 µM (inactive)
• CCOC(=O)CC1(C(=O)OCC)c2[nH]c3ccccc3c2CCN1Cc1ccccc1 (stereo not drawn) = 28.5 µM (inactive)
• CCOc1ccc2nc3nc(O)nc(C)c3c(NC(C)(CO)CO)c2c1 = > 100 µM (inactive)
• CC(=O)NC(CC(C)C)C(=O)NC(Cc1ccccc1)C(=S)N1CCCC1 (stereo not drawn) = > 100 µM (inactive)

Please state, for each entry, its recorded GI50.
1. CC(=O)OCCCCn1cnc2nc(Nc3ccccc3)nc(Cl)c21
2. COc1ccc(OC)c2c3c(ccc12)C(c1ccccc1)OC3=O (stereo not drawn)

Solution:
97.3 µM (inactive)
> 100 µM (inactive)
